Target: GST-tagged WT KRAS (amino acids 1-188) binding to His-tagged SOS1 (Homo sapiens (Human))
Sequence (P01116 other isoform, or with tags, fused parts or gaps): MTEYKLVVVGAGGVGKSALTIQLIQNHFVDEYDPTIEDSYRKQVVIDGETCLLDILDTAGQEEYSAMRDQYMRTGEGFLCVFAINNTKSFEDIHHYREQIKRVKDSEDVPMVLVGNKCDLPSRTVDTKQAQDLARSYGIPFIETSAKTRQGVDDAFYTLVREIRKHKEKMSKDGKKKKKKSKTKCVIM

# compound, target, IC50
records = [
    ("Cc1cccc2cccc(N3CCc4c(nc(OC[C@@H]5CCCN5C)nc4N4CC5CCC4CN5)C3)c12 (stereo partly shown)", "GST-tagged WT KRAS (amino acids 1-188) binding to His-tagged SOS1 (Homo sapiens (Human))", "> 50 µM"),
    ("Cc1cccc2cccc(N3CCc4c(nc(OC[C@@H]5CCCN5C)nc4N4CC5CCC(C4)N5)C3)c12", "GST-tagged WT KRAS (amino acids 1-188) binding to His-tagged SOS1 (Homo sapiens (Human))", "> 50 µM"),
    ("Cc1cccc2cccc(N3CCc4c(nc(OC[C@@H]5CCCN5C)nc4N4CCNCC4)C3)c12", "GST-tagged WT KRAS (amino acids 1-188) binding to His-tagged SOS1 (Homo sapiens (Human))", "> 50 µM"),
    ("CN1CCC[C@H]1COc1nc2c(c(N3C4CCC3CNC4)n1)CCN(c1cccc3cccc(Cl)c13)C2", "GST-tagged WT KRAS (amino acids 1-188) binding to His-tagged SOS1 (Homo sapiens (Human))", "> 50 µM"),
    ("CN1C[C@H](F)C[C@H]1COc1nc2c(c(N3CC4CCC(C3)N4)n1)CCN(c1cccc3cccc(Cl)c13)C2", "GST-tagged WT KRAS (amino acids 1-188) binding to His-tagged SOS1 (Homo sapiens (Human))", "> 10 µM"),
    ("CN1CCC[C@H]1COc1nc2c(c(N3CC4CCC(C3)N4)n1)CCN(c1cc(N)cc(Cl)c1C(F)(F)F)C2", "GST-tagged WT KRAS (amino acids 1-188) binding to His-tagged SOS1 (Homo sapiens (Human))", "2.39 µM"),
    ("Cc1cccc2cccc(N3CCc4c(nc(OC[C@@H]5CCCN5C)nc4N4C5CCC4C(N)C5)C3)c12 (stereo partly shown)", "GST-tagged WT KRAS (amino acids 1-188) binding to His-tagged SOS1 (Homo sapiens (Human))", "34.2 µM"),
]

Data provenance is patent US20240092803A1.
